ASSAY_READOUT: melting point

# input Which melting point is reported for this molecule? COc1ccc2[nH]cc(-c3cc4nccnc4[nH]3)c2c1 [Example 11]
# output 268 to 271 °C

# input Recorded melting point for c1cncc(OCCCn2cc(-c3cc4nccnc4[nH]3)c3ccccc32)c1 [Example 6] , please?
# output 208 to 209 °C

# input Tell me the measured melting point of CC(C)(C)c1ccc(-c2[nH]c3nccnc3c2CCC#N)cc1 [Example 23] , please.
# output 215 to 216 °C

# input Value lookup for melting point; key = CC(C)(C)c1ccc(-c2[nH]c3nccnc3c2CCCO)cc1 [Example 26]
# output 187 to 189 °C

# input Look up melting point: CCOC(=O)COc1cc(-c2cc3nccnc3[nH]2)ccc1OC [Example 27]
# output 183 to 184 °C

# input Quick check: melting point of Cn1cc(-c2cc3cccnc3[nH]2)c2cc(N)ccc21 [Example 18] ?
# output 247 to 248 °C

# input I'd like to know its melting point. The molecule in question is Cn1cc(-c2cc3nccnc3[nH]2)c2cc(O)ccc21 [Example 7]
# output 289 to 290 °C

# input Give the measured melting point of COc1ccc2[nH]cc(-c3cc4c(C(N)=O)ccnc4[nH]3)c2c1 [Example 42] .
# output > 320 °C
